Target desc: control cells (Staphylococcus epidermidis), whole cells (Staphylococcus epidermidis)
Measurement notes: mono-scFv-phage ELISA on control cells
Known O.D. 450 nm of a selection of binders
Note: unit O.D. 450 nm is implicit; provide only the numeric part.

mono-scFv-phage No. 10 (scFv, V domains shown) VH: QVQLVESGGGLIQPGGSLRLSCVASGFTVSSSFMSWVRLAPGKGLEWVALAYSGGNTYYADSVKGRFTVSRDDSSNTLYLQMNSLRAEDTAVYYCSCEGKAVSGSRDLHFEFWSPGTLVTVSS VL: SYELTQAPSLSVSPGQTANIICSGDNLRTKYVSWYQQKPGQAPVLVIYNDNDRPSGIPERFSGTNSGNTAALTISRVEAGDEADYYCQVWDSSSDHLIFGGGTKLTVL : 0.0023

*Q* Please supply the value of reported O.D. 450 nm for the item mono-scFv-phage No. 3 (scFv, V domains shown) VH: QMQLVQSGAEVKKPGASVKVSCKASGYTFTDYYIHWVRQAPGQGLEWMGWINPNSGAPEFAQRFQGRVSMTRDASINTTYMELSGLRSEDTAVYYCVKGLEHAAGSAIFDRWGQGTMVTVSS VL: QTVVTQEPSFSVSPGGTVTLTCGLTSGSVSTSHFPSWYQQTPGQAPRTLIYFKDTRSSGVPDRFSGSILGNKAALTITGAQADDESDYYCALSMGSGIWVFGGGTKLTVL
*A* 0.0002

*Q* Quote O.D. 450 nm reported for mono-scFv-phage No. 8 (scFv, V domains shown) VH: QVQLVQSGGGVVQPGGSLRLSCAASGFSFNDYAMHWVRQVPGKGLEWVSSISWNSRSTVYAASVEGRFSISRDNSKNSLYLQMNSLRAEDAAVYYCTTDLGVVPAAIYAFDIWGQGTMVTVSS VL: DIQMTQSPSVMSASVGDRVNITCRASQGITNWLAWYQQKPGKAPKLLISAASSLQSGVPSRFSGSGSGTDFTLTISSLQPDDFATYYCQQTATFQITFGQGTRLDIK please.
*A* 0.0044

*Q* Quote O.D. 450 nm reported for mono-scFv-phage No. 6 (scFv, V domains shown) VH: QVQLVESGGGVVRPGGSLRLSCTASGFTFDDHGMSWVRQAPGKGLEWVSTINLNGGSTAYADSVKGRFTISRDNAKNSLYLQMNSLRAEDTAVYYCSTRHLHHWGQGTLVTVSS VL: DIVMTQTPLSSPVTLGQPASISCRSSQSLVHSNGNTYLTWLQQRPGQPPRLLIHKISNRFSGVPDRFSGSGAGTDFTLKISRVEAEDVGVYYCVQAKQFPLTFGQGTRLEIK please.
*A* 0.0041

Data provenance: patent US20190224101A1
